The following compounds are shown together with reported IC50 values.
- study-target: Voltage-gated inwardly rectifying potassium channel KCNH2 (Homo sapiens)
- Sequence (Q12809 whole entry): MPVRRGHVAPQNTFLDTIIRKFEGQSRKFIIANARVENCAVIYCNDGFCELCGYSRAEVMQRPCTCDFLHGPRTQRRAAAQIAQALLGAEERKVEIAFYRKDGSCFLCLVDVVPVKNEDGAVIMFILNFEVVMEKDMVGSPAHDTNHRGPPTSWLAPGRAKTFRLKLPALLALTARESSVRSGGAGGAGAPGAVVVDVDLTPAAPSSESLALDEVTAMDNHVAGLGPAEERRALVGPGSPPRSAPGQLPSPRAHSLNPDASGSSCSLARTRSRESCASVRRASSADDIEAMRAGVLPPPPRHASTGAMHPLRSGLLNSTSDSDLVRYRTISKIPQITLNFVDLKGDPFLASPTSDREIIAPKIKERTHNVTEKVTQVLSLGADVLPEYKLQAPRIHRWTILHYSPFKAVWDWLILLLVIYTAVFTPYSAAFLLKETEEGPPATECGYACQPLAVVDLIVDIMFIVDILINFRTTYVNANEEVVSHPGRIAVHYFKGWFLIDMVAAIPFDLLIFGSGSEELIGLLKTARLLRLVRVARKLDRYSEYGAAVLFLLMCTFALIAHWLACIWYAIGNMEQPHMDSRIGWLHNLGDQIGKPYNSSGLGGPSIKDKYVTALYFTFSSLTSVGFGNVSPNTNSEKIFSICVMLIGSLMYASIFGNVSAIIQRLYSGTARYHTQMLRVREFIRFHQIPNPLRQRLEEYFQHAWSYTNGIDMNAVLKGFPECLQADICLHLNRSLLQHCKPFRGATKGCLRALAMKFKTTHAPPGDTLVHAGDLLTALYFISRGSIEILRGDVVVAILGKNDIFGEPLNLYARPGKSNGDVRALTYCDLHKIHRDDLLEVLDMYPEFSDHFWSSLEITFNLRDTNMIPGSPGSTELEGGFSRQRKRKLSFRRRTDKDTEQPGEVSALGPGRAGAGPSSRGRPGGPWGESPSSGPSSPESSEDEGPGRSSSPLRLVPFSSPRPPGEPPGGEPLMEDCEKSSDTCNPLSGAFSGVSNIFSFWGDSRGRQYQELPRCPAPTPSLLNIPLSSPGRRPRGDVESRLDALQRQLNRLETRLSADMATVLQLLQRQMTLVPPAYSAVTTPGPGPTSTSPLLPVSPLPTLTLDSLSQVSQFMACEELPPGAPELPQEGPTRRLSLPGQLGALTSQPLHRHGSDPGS
- method: Inhibition of hERG by patch clamp method

Known IC50 results, listed for orientation:
# substance-smiles, assay-result
measured = [
    ("CCOP(=O)(Cn1ccc(NC(=O)c2cc(Oc3cnc(S(C)(=O)=O)nc3)cc(OC(C)C)c2)n1)OCC", "> 80 µM"),
    ("CCOP(=O)(Cn1ccc(NC(=O)c2cc(Oc3ccc(C(=O)N4CCC4)cn3)cc(OC(C)C)c2)n1)OCC", "> 80 µM"),
]

// moving on: another record for IC50
Measured on Voltage-gated inwardly rectifying potassium channel KCNH2 (Homo sapiens), "CCOP(=O)(Cn1ccc(NC(=O)c2cc(Oc3ccc(S(C)(=O)=O)nn3)cc(OC(C)C)c2)n1)OCC" has a documented IC50 of > 80 µM
